- assay overview: log P by HPLC on reversed-phase C18 columns (OECD Guideline 117)
- Format: physicochemical
- experimental parameters: method [a]
readout label: logP[a]

Study these solved cases before continuing.
1. CCCCCSc1ncc(C(=O)N(C)c2cccnc2)n1C; 2.03
2. CN(C(=O)c1cnc(Sc2cc(Cl)ccc2Cl)n1C)c1cccnc1; 2.55
3. COCCCSc1ncc(C(=O)N(C)c2cccnc2)n1C; 1.04
4. Cc1cc(C)nc(Sc2ncc(C(=O)Nc3cccnc3)n2C)n1; 1.55

I = COC(=O)C(C)(C)NC(=O)CSc1ncc(C(=O)N(C)c2cccnc2)n1C
II = CN(C(=O)c1cnc(Sc2ccc(Cl)c(C(F)(F)F)c2)n1C)c1cccnc1
Which one would you say has the larger logP[a] value: I , or II ? Your answer should be the label attached to the chosen record.
II
(II: 2.63, I: 1.06)

* * *

- assay overview: log P by HPLC on reversed-phase C18 columns (OECD Guideline 117)
- Type: physicochemical
- experimental parameters: method [a]
readout label: logP[a]

1. CN(C(=O)c1cnc(SCc2c(F)cccc2Cl)n1C)c1cccnc1; 1.89
2. CN(C(=O)c1cnc(SC2CCSCC2)n1C)c1cccnc1; 1.47
3. COc1ccc(Sc2ncc(C(=O)N(C)c3cccnc3)n2C)cc1; 1.62
4. CN(C(=O)c1cnc([S+]([O-])c2cccc(C(F)(F)F)c2)n1C)c1cccnc1 (stereo not shown); 1.74

* * *

- assay overview: log P by HPLC on reversed-phase C18 columns (OECD Guideline 117);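 for logP[b]: method b is the neutral LC-MS method at pH 7.8 with ammonium hydrogencarbonate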
- Type: physicochemical
- experimental parameters: method [b]
readout label: logP[b]

1) CN(C(=O)c1cnc(SCC(F)(F)F)n1C)c1cccnc1; 1.54
2) Cc1ccc(Sc2ncc(C(=O)N(C)c3cccnc3)n2C)cc1; 2.03
3) CN(C(=O)c1cnc(SCc2ccccn2)n1C)c1cccnc1; 1.16

a = CN(C(=O)c1c(Cl)nc(Sc2ncccn2)n1C)c1cccnc1
b = CN(C(=O)c1cnc(SCc2cncn2C)n1C)c1cccnc1
Of a and b , which carries the smaller reported logP[b] figure? Your answer should be the label attached to the chosen record.
b
(b: 0.85, a: 1.34)

* * *

- assay overview: log P by HPLC on reversed-phase C18 columns (OECD Guideline 117);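 for logP[b]: method b is the neutral LC-MS method at pH 7.8 with ammonium hydrogencarbonate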
- Format: physicochemical
- experimental parameters: method [b]
- Description: The log P values were determined in accordance with OECD Guideline 117 (EC Directive 92/69/EEC) by HPLC (high-performance liquid chromatography) using reversed-phase (RP) columns (C18), by the following methods: [a] The LC-MS determination in the acidic range was carried out at pH 2.7 with 0.1% aqueous formic acid and acetonitrile (contains 0.1% formic acid) as mobile phases; linear gradient from 10% acetonitrile to 95% acetonitrile. [b] […]
readout label: logP[b]

Study these solved cases before continuing.
1) COCCCSc1ncc(C(=O)N(C)c2cccnc2)n1C [I-A-20]; 1.35
2) CN(C(=O)c1cnc(SCc2cccnc2)n1C)c1cccnc1 [I-A-119]; 1.15
3) CN(C(=O)c1cnc(SC2CCOCC2)n1C)c1cccnc1 [I-A-52]; 1.25
4) CN(C(=O)c1cnc(Sc2ncc(F)cn2)n1C)c1cccnc1 [I-A-107]; 1.20
5) CN(C(=O)c1cnc(S(=O)(=O)c2cccc(Cl)c2)n1C)c1cccnc1 [I-A-73]; 1.87

a = CN(C(=O)c1cnc([S+]([O-])c2ccc([N+](=O)[O-])cc2)n1C)c1cccnc1 (centres unmarked) [I-A-89]
b = CN(C(=O)c1cnc(SCC(F)(F)C(F)(F)Cl)n1C)c1cccnc1 [I-A-46]
c = CN(C(=O)c1cnc(Sc2nccn2C)n1C)c1cccnc1 [I-A-144]
Your job: order these 3 records by logP[b], ascending. // rank by listing labels in the order requested
c, a, b

1 = CN(C(=O)c1cnc(SCc2ccn(C)n2)n1C)c1cccnc1 [I-A-115]
2 = CN(C(=O)c1cnc(SCC(F)(F)C(F)F)n1C)c1cccnc1 [I-A-49]
Of 1 and 2 , which carries the smaller reported logP[b] figure? Your answer should be the label attached to the chosen record.
1

P = CN(C(=O)c1cnc(SCC(=O)NC2CC2)n1C)c1cccnc1 [I-A-132]
Q = CSc1cccc(Sc2ncc(C(=O)N(C)c3cccnc3)n2C)c1 [I-A-9]
Of P and Q , which carries the smaller reported logP[b] figure? Your answer should be the label attached to the chosen record.
P
(P: 0.94, Q: 2.12)

A = CN(C(=O)c1cnc(SCc2ccc(Cl)nc2)n1C)c1cccnc1 [I-A-122]
B = COC(=O)CSc1ncc(C(=O)N(C)c2cccnc2)n1C [I-A-25]
Of A and B , which carries the smaller reported logP[b] figure? Your answer should be the label attached to the chosen record.
B

* * *

- assay overview: log P by HPLC on reversed-phase C18 columns (OECD Guideline 117)
- Assay type: physicochemical
- experimental parameters: method [a]
readout label: logP[a]

1. CN(C(=O)c1cnc(Sc2cc(Cl)c(Cl)cc2Cl)n1C)c1cccnc1 [I-A-56]; 2.86
2. COc1ccnc(Sc2ncc(C(=O)N(C)c3cccnc3)n2C)n1 [I-A-106]; 1.20
3. CCCCSc1ncc(C(=O)N(C)c2cccnc2)n1C [I-A-5]; 1.67
4. CN(C(=O)c1cnc(SCc2c(F)cccc2F)n1C)c1cccnc1 [I-A-123]; 1.69
5. CSc1cccc(Sc2ncc(C(=O)N(C)c3cccnc3)n2C)c1 [I-A-9]; 2.0

I = CN(C(=O)c1cnc([S+]([O-])Cc2ccccc2)n1C)c1cccnc1 (stereo not drawn) [I-A-130]
II = COCCSc1ncc(C(=O)N(C)c2cccnc2)n1C [I-A-18]
Which one would you say has the larger logP[a] value: I , or II ? Your answer should be the label attached to the chosen record.
I
(I: 1.18, II: 0.76)

P = CN(C(=O)c1cnc(SCc2ccncc2)n1C)c1cccnc1 [I-A-116]
Q = CN(C(=O)c1cnc(SCC(=O)NC2CC2)n1C)c1cccnc1 [I-A-132]
Of P and Q , which carries the smaller reported logP[a] figure? Your answer should be the label attached to the chosen record.
P
(P: 0.16, Q: 0.59)

A = CCSCCSc1ncc(C(=O)N(C)c2cccnc2)n1C [I-A-14]
B = CN(C(=O)c1cnc(SCc2ccn(C)n2)n1C)c1cccnc1 [I-A-115]
Of A and B , which carries the smaller reported logP[a] figure? Your answer should be the label attached to the chosen record.
B
(B: 0.76, A: 1.61)

A = CN(C(=O)c1cnc(Sc2ccc(Cl)nc2)n1C)c1cccnc1 [I-A-70]
B = CN(C(=O)c1cnc(SCc2cccnc2)n1C)c1cccnc1 [I-A-119]
C = C#CCSc1ncc(C(=O)N(C)c2cccnc2)n1C [I-A-30]
Your job: order these 3 records by logP[a], ascending. // rank by listing labels in the order requested
B, C, A
(B: 0.39, C: 0.87, A: 1.45)

1 = CN(C(=O)c1cnc(S(=O)(=O)c2ccccc2)n1C)c1cccnc1 [I-A-88]
2 = CN(C(=O)c1cnc(SCc2cnccn2)n1C)c1cccnc1 [I-A-113]
3 = CN(C(=O)c1cnc(S(C)(=O)=O)n1C)c1cccnc1 [I-A-8]
Ordering criterion: logP[a]; begin with the maximum. // rank by listing labels in the order requested
1, 2, 3

P = CCCSc1ncc(C(=O)N(C)c2cccnc2)n1C [I-A-21]
Q = CN(C(=O)c1cnc(SCc2ccccn2)n1C)c1cccnc1 [I-A-117]
Which one would you say has the larger logP[a] value: P , or Q ? Your answer should be the label attached to the chosen record.
P

a = Cc1cccc(Sc2ncc(C(=O)N(C)c3cccnc3)n2C)n1 [I-A-108]
b = CCS(=O)(=O)c1ncc(C(=O)N(C)c2cccnc2)n1C [I-A-40]
Of a and b , which carries the smaller reported logP[a] figure? Your answer should be the label attached to the chosen record.
b

* * *

- assay overview: log P by HPLC on reversed-phase C18 columns (OECD Guideline 117);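 for logP[b]: method b is the neutral LC-MS method at pH 7.8 with ammonium hydrogencarbonate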
- Assay type: physicochemical
- experimental parameters: method [b]
readout label: logP[b]

1. CN(C(=O)c1cnc([S+]([O-])c2cccc(C(F)(F)F)c2)n1C)c1cccnc1 (centres unmarked); 1.80
2. CN(C(=O)c1cnc([S+]([O-])c2cccc(Cl)c2)n1C)c1cccnc1 (centres unmarked); 1.55
3. CN(C(=O)c1cnc(S(=O)(=O)c2ccccc2)n1C)c1cccnc1; 1.47
4. CCN(C(=O)c1cnc(SC)n1C)c1cccnc1; 1.30
5. CN(C(=O)c1cnc(SCc2ncccn2)n1C)c1cccnc1; 0.85
6. COc1ccc(S(=O)(=O)c2ncc(C(=O)N(C)c3cccnc3)n2C)cc1; 1.58

a = CN(C(=O)c1cnc(SCc2c(F)cccc2Cl)n1C)c1cccnc1
b = CN(C(=O)c1cnc([S+]([O-])c2ccc(F)cc2)n1C)c1cccnc1 (centres unmarked)
c = CN(C(=O)c1cnc([S+]([O-])c2ccccn2)n1C)c1cccnc1 (centres unmarked)
d = CNC(=O)CS(=O)(=O)c1ncc(C(=O)N(C)c2cccnc2)n1C
Ordering criterion: logP[b]; begin with the maximum. // rank by listing labels in the order requested
a, b, c, d
(a: 2.09, b: 1.27, c: 0.80, d: 0.55)

I = COc1ccccc1Sc1ncc(C(=O)N(C)c2cccnc2)n1C
II = CC(C)CCSc1ncc(C(=O)N(C)c2cccnc2)n1C
Which one would you say has the larger logP[b] value: I , or II ? Your answer should be the label attached to the chosen record.
II
(II: 2.76, I: 1.74)

1 = CN(C(=O)c1cnc(Sc2ccc(C(C)(C)C)cc2)n1C)c1cccnc1
2 = CN(C(=O)c1c(Br)nc(Sc2ncccn2)n1C)c1cccnc1
Which one would you say has the larger logP[b] value: 1 , or 2 ? Your answer should be the label attached to the chosen record.
1

The reported numbers originate from patent US10368545B2.
